# experimental_details: Cell Viability - LYMP1-003 - Assay at 40 hr (AID 964); further: on the % scale 0 is the no-effect control and ±100 the full control effect; nearly all actives have a fitted effect of over 60% in size
# condition_summary: LYMP1-003 lymphoblastoid viability; series mostly up to 92.2 µM
Results filed as inconclusive are left out. The source made the active and inactive calls. The call rests on the fitted dose curve; in most records, active means well fitted cell-killing curve with a large enough effect; inconclusive means small, poorly fitted or top-dose-only effect; inactive means flat fitted curve, though single readings scatter.
measured_quantity: outcome

According to the records, this compound `CC(C)c1cccc(C(C)C)c1O` displays outcome of inactive

Kindly note the recorded outcome for CCOC(=O)CC(SP(=S)(OC)OC)C(=O)OCC (stereo not given) , which is inactive

outcome in this record for O=P1(N(CCCl)CCCl)NCCCO1 (stereo not given) : inactive

The reported outcome of the compound `Nc1ccccc1` was inactive

The compound identified as `C[C@]12CCC(=O)C=C1CC[C@@H]1[C@@H]2CC[C@@]2(C)[C@H]1CC[C@]2(C)O` registered its outcome at inactive

---
Form field outcome, entry COC(=O)C(c1ccccc1)C1CCCCN1 (stereo not given) : inactive

// outcome lookup, compound = `COP(=S)(OC)Oc1ccc(SC)c(C)c1` , result: inactive

# outcome of `COc1cc(OC)c(OC)cc1C=O` = inactive

outcome in this record for `Clc1ccc(C(c2ccc(Cl)cc2)C(Cl)(Cl)Cl)cc1` : inactive

// outcome value for `CN1C[C@H](C(=O)N[C@]2(C)O[C@@]3(O)[C@@H]4CCCN4C(=O)[C@H](Cc4ccccc4)N3C2=O)C=C2c3cccc4[nH]cc(c34)C[C@H]21` : inactive

---

# experimental_details: qHTS of pediatric cancer cell lines to identify multiple opportunities for drug repurposing: Primary screen for Rh30 cells (AID 1347107); further: on the % scale 0 is the no-effect control and ±100 the full control effect; nearly all actives have a fitted effect of over 75% in size
# condition_summary: Rh30 rhabdomyosarcoma viability, CellTiter-Glo luminescence, 48 h; series mostly up to 46 µM
Records with an inconclusive call do not appear. Calls of active or inactive are those of the source. Calls follow the shape of the dose curve; as a rule, active = well fitted cell-killing curve with a large enough effect; inconclusive = small, poorly fitted or top-dose-only effect; inactive = no such curve, though single readings can be large or run the other way.
measured_quantity: outcome

A selection of reference data follows.
response.value for `C#C[C@]1(O)CC[C@H]2[C@@H]3CCC4=CC(=O)CC[C@]4(C)[C@H]3CC[C@@]21C` (field: outcome) = inactive

Consider `Nc1ccc([As](=O)(O)O)cc1` . Its measured outcome is inactive

The reported value for CC(Cc1ccccc1)N(C)Cc1ccco1 (configuration not stated) in terms of outcome is inactive

response.value for `O=C1c2ccccc2C(=O)C1C(=O)C(c1ccccc1)c1ccccc1` (field: outcome) = inactive

For record `COc1c2c(cc3c1OCO3)CCN(C)C2` the listed outcome is inactive

Further cases:
// outcome lookup, compound = `CC(C)C[C@H](CN)CC(=O)O` , result: inactive

Noted for `O=C1OC(c2ccc(O)c(S(=O)(=O)O)c2)(c2ccc(O)c(S(=O)(=O)O)c2)c2c(Br)c(Br)c(Br)c(Br)c21` : its outcome reads inactive

// outcome lookup, compound = `CCCN(CCC)C(=O)Cc1c(-c2ccc(Cl)cc2)nc2ccc(Cl)cn12` , result: inactive

Reported outcome for `Cc1ncsc1CCCl` was inactive

The value of outcome measured for the compound CC1(C)C(C=C(Cl)Cl)C1C(=O)OC(C#N)c1cccc(Oc2ccccc2)c1 (configuration not stated) turned out to be inactive

Kindly note the recorded outcome for CC(C)(C)NCC(O)c1ccccc1Cl (configuration not stated) , which is inactive

Lab note: `CCN(CC)CCc1c[nH]c2ccccc12` gave outcome of inactive

---

# experimental_details: qHTS for Inhibitors of the Functional Ribonucleoprotein Complex (vRNP) of Lassa (LASV) Arenavirus: LASV Primary Screen - GLuc reporter signal (AID 1347082); further: on the % scale 0 is the no-effect control and ±100 the full control effect; nearly all actives have a fitted effect of over 60% in size
# condition_summary: LASV minigenome vRNP, Gaussia luciferase reporter; series mostly up to 57.5 µM
Inconclusive results are not listed. Calls of active or inactive are those of the source. Calls follow the shape of the full dose curve; tested in HEK293 reporter line.
measured_quantity: activity change, negative = inhibition

# annotated cases, reported activity change, negative = inhibition shown
`CCCCCCCCCCCCCCCCCCO` has a reported activity change, negative = inhibition of inactive

Entry `COC(=O)c1cccnc1` , activity change, negative = inhibition reported as inactive

Form field activity change, negative = inhibition, entry `Nc1ccc(S(=O)(=O)NCc2ccccc2)cc1` : inactive

Value of activity change, negative = inhibition reported for the compound `CC(C)c1ccc2oc3nc(N)c(C(=O)O)cc3c(=O)c2c1` is inactive

compound `CCN(CC)CCNC(=O)c1cc(S(C)(=O)=O)ccc1OC` , activity change, negative = inhibition observed: inactive

Briefly, activity change, negative = inhibition measured for `Cc1onc(-c2c(Cl)cccc2Cl)c1C(=O)Cl` : inactive

Switching to the query record.
Note to self: activity change, negative = inhibition recorded for Nc1ccc(C(=O)OCC(O)CO)cc1 (configuration not stated) was inactive

---

# System: TAB165
# experimental_details: qHTS profiling for inhibitors of Plasmodium falciparum proliferation (AID 504749);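 further: 0% = DMSO vehicle and full inhibition = artemisinin control; nearly all actives have a fitted effect of over 60% in size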
# condition_summary: P. falciparum in erythrocytes, SYBR Green DNA, 72 h; series mostly up to 28.7 µM
Results filed as inconclusive are left out. The source made the active and inactive calls. Calls come from the whole dose curve; as a rule, active = well fitted inhibition curve with a large enough effect; inconclusive = small, poorly fitted or top-dose-only effect; inactive = flat fitted curve, though single readings scatter.
measured_quantity: outcome

Lookup result for `C=C(C)[C@H]1CN[C@H](C(=O)O)[C@H]1CC(=O)O` ; measured outcome: inactive

// outcome value for `C[C@]12CC[C@@H]3c4ccc(OC(=O)N(CCCl)CCCl)cc4CC[C@H]3[C@@H]1CC[C@@H]2O` : inactive

The measured outcome associated with `Cc1ncsc1CCCl` reads inactive

---

# system_tested: Thyrotropin-releasing hormone receptor (Homo sapiens) (UniProt P34981)
# Sequence (P34981 whole entry, looked up): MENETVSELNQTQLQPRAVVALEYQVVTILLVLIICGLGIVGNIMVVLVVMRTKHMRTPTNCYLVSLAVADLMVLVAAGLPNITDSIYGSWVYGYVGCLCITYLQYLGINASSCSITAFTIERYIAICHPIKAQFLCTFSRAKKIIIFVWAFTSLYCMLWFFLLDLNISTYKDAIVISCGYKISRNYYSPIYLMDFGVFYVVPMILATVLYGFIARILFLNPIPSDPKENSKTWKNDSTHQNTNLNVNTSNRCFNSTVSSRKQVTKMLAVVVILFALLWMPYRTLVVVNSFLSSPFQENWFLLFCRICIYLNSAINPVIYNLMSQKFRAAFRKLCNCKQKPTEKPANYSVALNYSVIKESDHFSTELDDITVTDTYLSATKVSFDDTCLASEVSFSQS
# experimental_details: qHTS for Small Molecule Agonists and Allosteric Enhancers of Human TRH Receptor: Validation Screen for Agonists (AID 493127);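 further: intracellular calcium rise by fluo-8 fluorescence before TRH EC20 addition; 0% is about no effect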
# condition_summary: TRH receptor agonist cell assay; at 2 µM; stronger effect = higher value
Some compounds, each annotated with its measured activation.
Give just the number in %; leave the unit off.

# example entries with known answers
response.value for O=P1(N(CCCl)CCCl)NCCCO1 (stereo not given) (field: activation) = -0.25

Record `CC(C)c1cccc(C(C)C)c1O` . Reported activation: -6.88

CCC1(c2ccc(N)cc2)CCC(=O)NC1=O (stereo not given) has a reported activation of 1.56

***
`C=C(C)[C@H]1CN[C@H](C(=O)O)[C@H]1CC(=O)O` yielded activation of 1.12

# activation (compound: CC(C)(C)NCC(O)c1ccccc1Cl (stereo not given) ) is 0.312

---

# condition_summary: Ebola virus entry assay, reporter ratio channel; Channel type: primary unless noted
Calls of active or inactive are those of the source.
measured_quantity: outcome

In the examples that follow, each entry is paired with its recorded outcome.
In plain terms, `COc1ccc(CCN(C)CCCN2CCc3cc(OC)c(OC)cc3CC2=O)cc1OC` has a documented outcome of inactive

compound `O=C1OC(c2ccc(O)c(S(=O)(=O)O)c2)(c2ccc(O)c(S(=O)(=O)O)c2)c2c(Br)c(Br)c(Br)c(Br)c21` , outcome observed: inactive

Consider `CSCC[C@H](NC(=O)[C@H](Cc1c[nH]c2ccccc12)NC(=O)CCNC(=O)OC(C)(C)C)C(=O)N[C@@H](CC(=O)O)C(=O)N[C@@H](Cc1ccccc1)C(N)=O` . Its measured outcome is inactive

What the record says about `C/C=C1\[C@H]2C=C(C)C[C@]1(N)c1ccc(=O)[nH]c1C2` : outcome is inactive

Next:
// `CCCC(=O)O[C@]1(C(=O)CO)CC[C@H]2[C@@H]3CCC4=CC(=O)CC[C@]4(C)[C@H]3[C@@H](O)C[C@@]21C` : outcome value = inactive

# outcome of `Cc1cc(O)c2ccccc2c1O` = inactive

Record `CCCCCCCCCCOc1cc2c(=O)c(C(=O)OCC)c[nH]c2cc1OCC` . Reported outcome: inactive

Field outcome (entry `CCN(CC)CC(=O)Oc1ccc(NC(C)=O)cc1` ) reads inactive

Notebook: `O=C(c1ccccc1)c1ccccc1` , outcome read as inactive

---

# condition_summary: Ebola virus entry assay, green fluorescence channel
Entries with a potency or affinity are not part of this list.
measured_quantity: efficacy (%)
Write the number in % without appending the unit.

Here are 2 molecules together with their reported answers.
molecule `Cc1cc(CCCOc2c(C)cc(-c3noc(C(F)(F)F)n3)cc2C)on1` , efficacy observed: 12.1

Consider `CN(C)C(=O)Oc1ccc[n+](C)c1` . Its measured efficacy is 18

***
In plain terms, `C[C@@H]1CN(c2c(F)c(F)c3c(=O)c(C(=O)O)cn(C4CC4)c3c2F)C[C@H](C)N1` has a documented efficacy of -15.7

get_value(item= `OC1(c2ccccc2)CCNCC1` , readout=efficacy) returns 9.98

# efficacy (molecule: `O=C(O)Cn1cnnn1` ) is 14.2

The measured efficacy associated with `Cc1c(I)c(=O)n(-c2ccccc2)n1C` reads -23.5

Memo: `NC(=O)NS(=O)(=O)c1ccc(Cl)cc1` , reported efficacy: -22.2

In plain terms, `CC(=O)Nc1ccc(/C=N/NC(N)=S)cc1` has a documented efficacy of 33.2

GET /value?item= `CCCCOCCOC(=O)c1cccnc1` &field=efficacy returns -26.3

Lookup result for `O=C(O)CN1C(=O)c2cccc3cccc(c23)C1=O` ; measured efficacy: 11.9

efficacy in this record for `Cc1onc(-c2c(Cl)cccc2Cl)c1C(=O)Cl` : -15.7

# molecule NS(=O)(=O)c1cc2c(cc1Cl)NC(C(Cl)Cl)NS2(=O)=O (stereo not drawn) ; its efficacy = -21

// efficacy lookup, molecule = `C=C(C)[C@H]1CN[C@H](C(=O)O)[C@H]1CC(=O)O` , result: -11.7
